# Tested system: SARS-CoV spike protein (full length, trimeric) (SARS-CoV, UniProt P59594 14-1190)
Metric name: fold over isotype control (median fluorescence)

INSERT INTO assay_data (binder, endpoint_result) VALUES
  ('antibody 446 (antibody, V domains shown) VH: QVQLVESGGGVVQPGRSLRLSCAASGFTFSSYAMHWVRQAPGKGLEWVAVISYDGSNKYYADSVKGRFTISRDNSKNTLYLQMNSLRAEDTAVYYCARPNSGSYFGYFQHWGQGTLVTVSS VL: QSVLTQPPSVSGAPGQRVTISCTGSSSNIGAGYDVHWYQQLPGTAPKLLIYGNSNRPSGVPDRFSGSKSGTSASLAITGLQAEDEADYYCQSYDSSLSGFYVFGTGTKVTVL', '6.58 fold over isotype');
